Target: UniProt:P21554
Sequence (P21554 whole entry): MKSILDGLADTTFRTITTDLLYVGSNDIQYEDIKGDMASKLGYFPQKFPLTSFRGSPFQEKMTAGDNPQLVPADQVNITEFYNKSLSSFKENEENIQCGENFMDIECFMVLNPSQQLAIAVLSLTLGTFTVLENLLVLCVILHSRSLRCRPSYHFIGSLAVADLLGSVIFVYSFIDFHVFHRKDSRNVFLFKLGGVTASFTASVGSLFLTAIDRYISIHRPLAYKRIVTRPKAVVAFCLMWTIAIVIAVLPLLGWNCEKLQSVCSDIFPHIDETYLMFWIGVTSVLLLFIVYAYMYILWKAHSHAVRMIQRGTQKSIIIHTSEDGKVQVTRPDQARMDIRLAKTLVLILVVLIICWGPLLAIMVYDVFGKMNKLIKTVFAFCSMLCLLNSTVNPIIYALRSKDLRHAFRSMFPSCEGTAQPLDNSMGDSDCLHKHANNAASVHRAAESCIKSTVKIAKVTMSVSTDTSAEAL
Assay type: functional, cell-based
Each entry below carries its reported AC50.

| molecule | targetDesc | AC50 |
| --- | --- | --- |
| Oc1ncnc2[nH]ncc12 | UniProt:P21554 | > 30 µM |
| Nc1nc2ccc(OC(F)(F)F)cc2s1 | UniProt:P21554 | > 30 µM |
| COc1cc2c(cc1OC)C(=O)C(CC1CCN(Cc3ccccc3)CC1)C2 (stereo not drawn) | UniProt:P21554 | > 30 µM |
| CN(C)CCCN1c2ccccc2Sc2ccccc21 | UniProt:P21554 | > 30 µM |
| C1=Cc2cccc(OCC3CNCCO3)c2C1 (stereo not drawn) | UniProt:P21554 | > 30 µM |
| CCC(=O)OCC(=O)[C@@]1(OC(=O)CC)[C@H](C)C[C@H]2[C@H]3[C@H]([C@@H](O)C[C@@]21C)[C@@]1(C)C=CC(=O)C=C1C[C@H]3Cl [ALCLOMETASONE DIPROPIONATE] | UniProt:P21554 | > 30 µM |
| CN(CCOc1ccc(NS(C)(=O)=O)cc1)CCc1ccc(NS(C)(=O)=O)cc1 [DOFETILIDE] | UniProt:P21554 | > 30 µM |
| COC(=O)[C@H]1[C@@H](OC(=O)c2ccccc2)C[C@@H]2CC[C@H]1N2C | UniProt:P21554 | > 30 µM |
| O=C(OCCN1CCOCC1)c1cccnc1Nc1cccc(C(F)(F)F)c1 [MORNIFLUMATE] | UniProt:P21554 | > 30 µM |
| COC(=O)[C@@H]1CC2=CC(=O)CC[C@]2(C)[C@@]23O[C@@H]2C[C@@]2(C)[C@@H](CC[C@@]24CCC(=O)O4)[C@H]13 | UniProt:P21554 | > 30 µM |
| CC(C)C(=O)OCC(=O)[C@@]12O[C@H](C3CCCCC3)O[C@@H]1C[C@H]1[C@@H]3CCC4=CC(=O)C=C[C@]4(C)[C@H]3[C@@H](O)C[C@@]12C [CICLESONIDE] | UniProt:P21554 | > 30 µM |
| CC(C)(Oc1ccc(C2CC2(Cl)Cl)cc1)C(=O)O (stereo not drawn) [CIPROFIBRATE] | UniProt:P21554 | > 30 µM |
| CC(C(O)c1ccc(O)cc1)N1CCC(Cc2ccccc2)CC1 (stereo not drawn) | UniProt:P21554 | > 30 µM |
| O=C(NC[C@H]1CN(c2ccc(N3CCOCC3=O)cc2)C(=O)O1)c1ccc(Cl)s1 | UniProt:P21554 | > 30 µM |
| CN(C/C=C/c1ccccc1)Cc1cccc2ccccc12 | UniProt:P21554 | > 30 µM |
| CCC1(C2=CCCCCC2)C(=O)NC(=O)NC1=O | UniProt:P21554 | > 30 µM |
| OCCOCCN1CCN(C2=Nc3ccccc3Sc3ccccc32)CC1 | UniProt:P21554 | > 30 µM |
| Cc1cccc(C)c1NC(=O)C1CCCCN1C (stereo not drawn) [MEPIVACAINE] | UniProt:P21554 | > 30 µM |
